- assayedTarget: T1, HMG1 purified from bovine (calf) thymus (bovine, UniProt P10103 2-215)
- T1 construct: also called Calf thymus HMGB1; thymus HMG1
- T1 sequence (looked up): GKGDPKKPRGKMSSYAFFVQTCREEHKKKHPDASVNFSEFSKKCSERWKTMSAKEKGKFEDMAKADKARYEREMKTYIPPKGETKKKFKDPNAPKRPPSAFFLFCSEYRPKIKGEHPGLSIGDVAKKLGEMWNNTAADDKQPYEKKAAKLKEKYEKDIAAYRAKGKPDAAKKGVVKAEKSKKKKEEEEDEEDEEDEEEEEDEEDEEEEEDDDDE
- protocolSummary: ELISA, wells coated with calf thymus HMGB1 at 5 ug/mL, antibody at 10 ug/mL, anti-human kappa/lambda-HRP, OD 490
metricName: binding result

- binder: "anti-HMG1 antibody G4 (antibody, V domains shown, also called ATCC PTA-6258) VH: EVQLLESGGGLVQPGGSLRLSCAASGFTFSWYDMTWVRQAPGKGLEWVSSISPSGGYTKYADSVKGRFTISRDNSKNTLYLQMNSLRAEDTAVYYCTTEFYDYLDVWGKGTTVTVSS VL: DIQMTQSPGTLSLSPGEGATLSCRASQSVSSTYLAWYQQKPGQAPRLLIYEASKRATGTPARFSGSGSGTDFTLSISSLEPEDFAVYYCQHRHNWPPQWTFGQGTKVEVK"
  metricName: "binding result"
  measurement: "binds"
- binder: "anti-HMG1 antibody G12 (antibody, V domains shown) VH: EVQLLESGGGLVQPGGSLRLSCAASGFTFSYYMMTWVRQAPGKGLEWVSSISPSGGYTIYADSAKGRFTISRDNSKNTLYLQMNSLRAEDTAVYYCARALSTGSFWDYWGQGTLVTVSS VL: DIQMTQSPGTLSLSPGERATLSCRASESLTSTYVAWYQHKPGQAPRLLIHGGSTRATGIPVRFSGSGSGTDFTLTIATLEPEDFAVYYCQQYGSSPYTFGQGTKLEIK"
  metricName: "binding result"
  measurement: "binds"
- binder: "anti-HMG1 antibody G2 (antibody, V domains shown) VH: EVQLLESGGGLVQPGGSLRLSCAASGFTFSWYKMQWVRQAPGKGLEWVSGISPSGGSTAYADSVKGRFTISRDNSKNTLYLQMNSLRAEDTAVYYCAKMGLFNTGNSYVDYWGQGTLVTVSS VL: AQSELTQPPSVSEAPGQRVTISCSGSTSNIGNNAVIWYQQLPGKAPKLLIYYDDLLPSGVSDRFSGSKSGTSGSLAISGLQSEDEADYYCASWDDNLNGPLFGGGTKLTVL"
  metricName: "binding result"
  measurement: "binds"
